These data points were gathered from patent US10538495B2.

- TESTED ON: indoleamine 2,3-dioxygenase (IDO1) (Homo sapiens)
- Sequence (P14902 whole entry): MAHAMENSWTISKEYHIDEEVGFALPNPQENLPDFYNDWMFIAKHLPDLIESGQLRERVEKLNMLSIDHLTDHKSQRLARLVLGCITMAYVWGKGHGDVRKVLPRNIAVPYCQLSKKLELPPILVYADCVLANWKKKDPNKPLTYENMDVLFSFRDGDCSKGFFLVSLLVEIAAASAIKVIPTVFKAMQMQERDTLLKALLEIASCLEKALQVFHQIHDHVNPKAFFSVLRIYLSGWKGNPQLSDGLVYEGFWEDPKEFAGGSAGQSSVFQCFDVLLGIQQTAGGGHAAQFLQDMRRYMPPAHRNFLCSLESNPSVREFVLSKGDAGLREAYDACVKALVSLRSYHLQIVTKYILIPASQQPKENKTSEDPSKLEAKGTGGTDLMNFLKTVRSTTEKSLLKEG
- MEASUREMENT DESCRIPTION: HeLa IDOi assay (kynurenine by mass spectrometry)
- Format: cell-based
- Design: human epithelial HeLa cells (CCL-2; host or cells: HeLa cells stimulated with human IFN-γ
- MEASUREMENT SETUP: IFN-γ stimulated HeLa cells, 2 days, kynurenine detected by mass spectrometry; read-out: HeLa pIC50 (converted)
ENDPOINT NAME: IC50 (nM)
Numbers only, in nM.

Some solved entries appear below for comparison.
smiles_record=CC(C)(C)Sc1ccc(-c2ccccc2-c2nn[nH]n2)cc1Nc1nc(C(F)(F)F)ns1 readout_units=nM measurement=50.1
smiles_record=Cc1ccc(CC(=O)Nc2cc(-c3ccccc3C(=O)O)ccc2SC(C)(C)C)cc1 readout_units=nM measurement=316
smiles_record=Cc1ccc(CC(=O)Nc2cc(-c3ccccc3-c3nn[nH]n3)ccc2SC2CCOCC2)cc1 readout_units=nM measurement=5010

The record that follows has no IC50 shown yet.
Req: State measured IC50 of the compound `Cc1ccc(CC(=O)Nc2cc(-c3ccccc3-c3nnnn3COP(=O)(OC(C)(C)C)OC(C)(C)C)ccc2SC(C)(C)C)cc1` with indoleamine 2,3-dioxygenase (IDO1) (Homo sapiens).
Resp: 126
